System: 786-0
protocol text: NCI tumour cell line growth inhibition, 48 h
The source made the active and inactive calls. No stated cut-off is given here; in the data, active = GI50 up to about 1.1 µM and inactive = higher.
readout kind: GI50

Query :: Any idea what its GI50 is? The compound is Cn1c(-c2ccc(C=O)o2)ccc1-c1ccc(C=O)o1
Result :: 61.1 µM (inactive)

Query :: Any idea what its GI50 is? The compound is O=c1c(C(c2ccc([N+](=O)[O-])cc2)c2c(O)c3ccccc3n(-c3ccccc3)c2=O)c(O)c2ccccc2n1-c1ccccc1
Result :: 11.6 µM (inactive)

---

Test system: RPMI-8226
protocol text: NCI tumour cell line growth inhibition, 48 h
Active and inactive are the calls of the source. Cut-off read from the data, not from the text of the source: active = GI50 up to about 1.1 µM and inactive = higher.
In this section we review reported GI50 values for a set of compounds.

[
  {
    "compound": "COC(=O)CSC(=S)Nc1nnc(NC(=S)SCOC(C)=O)n1C(=S)SCC(=O)OC",
    "result": "> 100 µM (inactive)"
  }
]

Query :: # query: GI50 | item O=C(CCC(=O)Nc1cccc(C(F)(F)F)c1)CC(=O)c1ccc2ccccc2c1 | system: RPMI-8226
Result :: > 100 µM (inactive)

Query :: # query: GI50 | item NC1=NNC2(C(N)=N1)c1ccccc1-c1ccccc12 | system: RPMI-8226
Result :: > 10 µM (inactive)

Query :: # query: GI50 | item COc1cccc(C(NC2=NCCC=N2)c2cc3c(cc2O)OCO3)c1O (centres undefined) | system: RPMI-8226
Result :: 21.5 µM (inactive)

Query :: # query: GI50 | item COc1nc(NC2OC(COC(C)=O)C(OC(C)=O)C(OC(C)=O)C2OC(C)=O)c(/N=C/C=N/c2c(NC3OC(COC(C)=O)C(OC(C)=O)C(OC(C)=O)C3OC(C)=O)nc(OC)n(C)c2=O)c(=O)n1C (centres undefined) | system: RPMI-8226
Result :: > 100 µM (inactive)

Query :: # query: GI50 | item CC(C)C(C(=O)O)N(CC1(O)OCC(O)C(O)C1O)N=O (centres undefined) | system: RPMI-8226
Result :: > 100 µM (inactive)

Query :: # query: GI50 | item COc1ccc(C2Cc3cc(OC)c(OC)c(OC)c3C2)cc1 (centres undefined) | system: RPMI-8226
Result :: 18.8 µM (inactive)

Query :: # query: GI50 | item Cc1cc(S(=O)(=O)O)ccc1/N=N/c1ccc(/N=N/c2c(O)ccc3ccccc23)c(C)c1 | system: RPMI-8226
Result :: > 100 µM (inactive)

Query :: # query: GI50 | item Cc1cn(C2CC(N(C)C)C(CO)O2)c(=O)[nH]c1=O (centres undefined) | system: RPMI-8226
Result :: > 100 µM (inactive)
